These data points were gathered from paper PMC5011342.

- Tested on: expanded OPCs
- ASSAY PROCEDURE: cells
- ASSAY SETUP: Rattus norvegicus, 72 h, read-out: 1 µM (% DMSO), alamarBlue viability of expanded OPCs, compound at 1 µM, sheet All Tox data
Counter-ions that a name gives are not always drawn.
Binary label based on viability at 1 µM with cut-off 90%: below gives True, not below gives False.

* O=c1n(CCCN2CCN(c3cccc(Cl)c3)CC2)nc2ccccn12 | True
* NC(N)=Nc1nc(CSCCC(N)=NS(N)(=O)=O)cs1 | False
* COC(=O)CCc1ccc(OCC(O)CNC(C)C)cc1 (centres unmarked) [Esmolol, reference compound] | False
* CN(CCOc1ccc(CC2SC(=O)NC2=O)cc1)c1ccccn1 (centres unmarked) [Rosiglitazone maleate] | False
* CC(C)[C@]12O[C@H]1[C@@H]1O[C@]13[C@]1(O[C@H]1C[C@H]1C4=C(CC[C@@]13C)C(=O)OC4)[C@@H]2O [Triptolide] | True
* COCCCC/C(=N\OCCN)c1ccc(C(F)(F)F)cc1 | True
* CCc1ccc(CCOc2ccc(CC3SC(=O)NC3=O)cc2)nc1 (centres unmarked) | False
* COC(=O)C1=C(C)NC(C)=C(C(=O)OCC(C)C)C1c1ccccc1[N+](=O)[O-] (centres unmarked) | True
* Nc1c2c(nc3ccccc13)CCCC2 | True
* CCOC(=O)c1ccc(OC(=O)CCCCCNC(=N)N)cc1 [Gabexate] | False
* CNCCCC12CCC(c3ccccc31)c1ccccc12 | True
* CN(C)CCCC1(c2ccc(F)cc2)OCc2cc(C#N)ccc21 (centres unmarked) [Nitalapram, reference compound] | False
* C[C@H]1[C@H](OC(=O)CCC(=O)O)O[C@@H]2O[C@@]3(C)CC[C@H]4[C@H](C)CC[C@@H]1[C@@]24OO3 [Artesunate] | False
* COc1cc(C(=O)NC2CCCNC2)cc(OC)c1OC (centres unmarked) [Troxipide] | False
* CC(C(O)c1ccc(O)cc1)N1CCC(Cc2ccccc2)CC1 (centres unmarked) [Ifenprodil, reference compound] | False
* CCOC(=O)N1CCC(=C2c3ccc(Cl)cc3CCc3cccnc32)CC1 | True
* CCN(CC)CC(=O)Nc1c(C)cccc1C | True
* COc1ccc(-c2cc(=O)c3c(OC)c(OC)c(OC)c(OC)c3o2)cc1OC | True
* CC12CC3CC(C)(C1)CC(N)(C3)C2 [Memantine] | False
* C[N+]1(CCC(C(N)=O)(c2ccccc2)c2ccccc2)CCCCC1 | False
* CC[C@@H]1C=CC=CC[C@H](C)[C@@H](O)[C@@H](C)C(=O)[C@H](C)[C@@H](O)[C@H](C)C(=O)[C@H](C)[C@@H](O)[C@H](C)C=CC(=O)O[C@H]2[C@@H](C)[C@@H](CC1)O[C@@]1(CC[C@@H](C)[C@@H](C[C@H](C)O)O1)[C@@H]2C | True
* COc1cc2nc(N3CCN(C(=O)C4CCCO4)CC3)nc(N)c2cc1OC (centres unmarked) | True
* O=C(NCCN1CCOCC1)c1ccc(Cl)cc1 [Moclobemide] | False

###

- System: expanded OPCs
- ASSAY PROCEDURE: cells
- ASSAY SETUP: Rattus norvegicus, 72 h, read-out: 10 µM (% DMSO), alamarBlue viability, NCC library compound at 10 µM, sheet "All Tox data"
ATTRIBUTE MEASURED: viability at 10 µM (%)

• CC(=O)[C@H]1CC[C@H]2[C@@H]3C[C@H](C)C4=CC(=O)CC[C@]4(C)[C@H]3[C@@H](O)C[C@]12C [Medrysone] = 121
• CN(C)[C@@H]1C(O)=C(C(=O)NCN2CCCC2)C(=O)[C@@]2(O)C(O)=C3C(=O)c4c(O)cccc4[C@@](C)(O)[C@H]3C[C@@H]12 [Rolitetracycline] = 69.8
• CCOC(=O)O[C@]1(C(=O)OCCl)CC[C@H]2[C@@H]3CCC4=CC(=O)C=C[C@]4(C)[C@H]3[C@@H](O)C[C@@]21C [Loteprednol etabonate] = 86.4
• COc1cc([C@@H]2c3cc4c(cc3[C@@H](O[C@@H]3O[C@@H]5CO[C@@H](C)O[C@H]5[C@H](O)[C@H]3O)[C@H]3COC(=O)[C@H]23)OCO4)cc(OC)c1O [Etoposide] = 8.9
• Cc1nc2ccc(CN(C)c3ccc(C(=O)N[C@@H](CCC(=O)O)C(=O)O)s3)cc2c(=O)[nH]1 [Raltitrexed] = 59.6
• CC#C[C@]1(O)CC[C@H]2[C@@H]3CCC4=CC(=O)CCC4=C3[C@@H](c3ccc(N(C)C)cc3)C[C@@]21C [Mifepristone] = 26.4
• Cc1nc2ccccn2c(=O)c1CCN1CCC(C(=O)c2ccc(F)cc2)CC1 [Pirenperone] = 83

###

- System: expanded OPCs
- ASSAY PROCEDURE: cells
- ASSAY SETUP: Rattus norvegicus, 72 h, read-out: 1 µM (% DMSO), alamarBlue viability of expanded OPCs, compound at 1 µM, sheet All Tox data
Non-standard residues stand in square brackets, D forms with d. Residues, ends and D or L forms follow the SMILES beside them. pGlu = O=C1CC[C@@H](C(=O)O)N1; Thz = O=C(O)[C@@H]1CSCN1
ATTRIBUTE MEASURED: viability at 1 µM (%)

• CC(C)NCC(O)COc1ccc(COCCOC(C)C)cc1 (stereo not drawn) = 89.8
• C[C@]12CCC(=O)C=C1CC[C@@H]1[C@@H]2CC[C@@]2(C)[C@H]1CC[C@]2(C)O = 112
• COc1cc(CNC(=O)CCCC/C=C\C(C)C)ccc1O = 72
• CC(C)[C@H](N)C(=O)OCCOCn1cnc2c(=O)[nH]c(N)nc21 = 98
• O=C1CC[C@@H](C(=O)N2CSC[C@H]2C(=O)O)N1 [Pidotimod] ([pGlu]-[Thz]-OH) = 105
• CCC(COC(=O)c1cc(OC)c(OC)c(OC)c1)(c1ccccc1)N(C)C (stereo not drawn) = 135
• COc1nc(C)nc(Cl)c1N=C1NCCN1 = 88.5
• Clc1ccc(CO/N=C(\Cn2ccnc2)c2ccc(Cl)cc2Cl)c(Cl)c1 = 195
• CN1CC[C@]23CCCC[C@H]2[C@H]1Cc1ccc(O)cc13 = 83.4

###

- Test system: expanded OPCs
- ASSAY PROCEDURE: cells
- ASSAY SETUP: alamarBlue viability of expanded OPCs, compound at 0.1 µM, relative to DMSO control
ATTRIBUTE MEASURED: 0.1 µM (% DMSO)

* Sc1ncnc2nc[nH]c12 [Mercaptopurine] | 92.3
* Cc1cccc(CN2CCN(C(c3ccccc3)c3ccc(Cl)cc3)CC2)c1 (stereo not drawn) [Meclizine] | 143.0
* CNC[C@H](O)c1ccc(O)c(O)c1 [Epinephrine] | 101.9
* Clc1ccc(COC(Cn2ccnc2)c2ccc(Cl)cc2Cl)c(Cl)c1 (stereo not drawn) [Miconazole] | 91.9
* CCC[C@@H]1C[C@@H](C(=O)N[C@@H]([C@H]2O[C@H](SC)[C@H](O)[C@@H](O)[C@H]2O)[C@@H](C)O)N(C)C1 [Lincomycin] | 93.6
* O=c1[nH]c(=O)n([C@H]2C[C@H](O)[C@@H](CO)O2)cc1F [Floxuridine] | 65.0
* C#C[C@]1(O)CC[C@H]2[C@@H]3CCC4=Cc5oncc5C[C@]4(C)[C@H]3CC[C@@]21C [Danazol] | 95.3
* CC(C)n1c(/C=C/C(O)CC(O)CC(=O)O)c(-c2ccc(F)cc2)c2ccccc21 (stereo not drawn) [Fluvastatin] | 96.9
* OC(c1cc(C(F)(F)F)nc2c(C(F)(F)F)cccc12)C1CCCCN1 (stereo not drawn) [Mefloquine] | 39.0

###

- Tested on: acutely dissociated and purified rat OPCs
- ASSAY PROCEDURE: Acute OL differentiation assay (MBP expression/cell, immunofluorescent image quantification)
- Type: cell-based
- ASSAY SETUP: Rattus norvegicus, test compound at 0.08 uM; MBP expression relative to quetiapine; NCC library screen, sheet "All OLga data"; read-out: 0.08 uM (% Quet)
Overview of reported activation at 0.08 µM across a group of compounds:
ATTRIBUTE MEASURED: activation at 0.08 µM

- O=C(c1ccc(OCCN2CCCCC2)cc1)c1c(-c2ccc(O)cc2)sc2cc(O)ccc12 [Raloxifene, reference compound]: 91.9%
- CN1CCN(CC/C=C2/c3ccccc3Sc3ccc(S(=O)(=O)N(C)C)cc32)CC1: 45.9%
- CNCCCN1c2ccccc2CCc2ccccc21: 8.9%
- CC[C@H]1OC(=O)[C@H](C)[C@@H](O[C@H]2C[C@@](C)(OC)[C@@H](O)[C@H](C)O2)[C@H](C)[C@@H](O[C@@H]2O[C@H](C)C[C@H](N(C)C)[C@H]2O)[C@](C)(O)C[C@@H](C)CN(C)[C@H](C)[C@@H](O)[C@]1(C)O: 8.2%
